Target: RORc ligand binding domain (Homo sapiens)
Construct: host or cells: E. coli
Sequence (P51449 269-508 limits assumed): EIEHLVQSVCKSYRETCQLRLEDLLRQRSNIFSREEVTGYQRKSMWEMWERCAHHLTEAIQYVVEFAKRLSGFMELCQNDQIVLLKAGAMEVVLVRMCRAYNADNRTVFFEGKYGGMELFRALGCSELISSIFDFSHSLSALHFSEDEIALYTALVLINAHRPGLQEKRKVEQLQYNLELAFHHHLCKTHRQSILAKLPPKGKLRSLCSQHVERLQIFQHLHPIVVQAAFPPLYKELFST
Assay: In Vitro RORc Ligand Binding Assay (25-[3H]hydroxycholesterol radioligand filtration)
Conditions: In Vitro RORc Ligand Binding Assay; Table 4; read-out: RORc IC50
pIC50: −log10 of the molar value.
Measured endpoint: pIC50

P: C[C@H]1CCC(c2ccccc2)S(=O)(=O)N1Cc1ccc(C(=O)NCC2COC2)cc1 (stereo partly shown)
Q: C[C@H]1CCC(c2ccccc2)S(=O)(=O)N1Cc1ccc(N2CCN(C(=O)CCC#N)CC2)cc1F (single isomer, unassigned) [Example 72]
Prompt: // select label with min value of measured pIC50 from [ P , Q ] Please identify the chosen entry by its label.
Completion: P

a: C[C@H]1CCC(c2ccccc2)S(=O)(=O)N1Cc1ccc(N2CCC(c3nccn3C)CC2)cc1F (single isomer, unassigned) [Example 139]
b: COc1cc(N2CCN(C(C)=O)CC2)ccc1CN1[C@@H](C)CCC(c2ccccc2)S1(=O)=O (single isomer, unassigned) [Example 160]
Prompt: Between a and b , whose recorded pIC50 is greater? Indicate your choice by writing its label.
Completion: b

###

target: RORc ligand binding domain (Homo sapiens, UniProt P51449); construct: host or cells: E. coli; test: In Vitro RORc Ligand Binding Assay (25-[3H]hydroxycholesterol radioligand filtration); details: In Vitro RORc Ligand Binding Assay; Table 4; read-out: RORc IC50
Measured endpoint: IC50 (µM)

These recorded examples may help you get a feel for the data.
Prompt: Given the entry CC(=O)N1CCN(c2ccc(CN3CCCCC(c4ccccc4)S3(=O)=O)cc2F)CC1 (single isomer, unassigned) [Example 346] , what IC50 was observed with RORc ligand binding domain (Homo sapiens, UniProt P51449)?
Completion: 0.05

Prompt: Requested read-out IC50, target or system RORc ligand binding domain (Homo sapiens, UniProt P51449), entry C[C@H]1CCC(c2ccccc2)S(=O)(=O)N1Cc1ccc(C(=O)NC2(C#N)CCC2)cc1 (stereo partly drawn)
Completion: 3.48

Prompt: // map CC(=O)N1CCN(c2ccc(CN3CCCCC(c4ccccc4)S3(=O)=O)c(F)c2)[C@@H](C)C1 (single isomer, unassigned) [Example 341] to recorded IC50 (system: RORc ligand binding domain (Homo sapiens, UniProt P51449))
Completion: 0.026

P: C[C@H]1CCC(c2ccccc2)S(=O)(=O)N1Cc1ccc(N2CCC(c3cn[nH]c3)CC2)cc1F (single isomer, unassigned) [Example 243]
Q: C[C@H]1CCC(c2ccccc2)S(=O)(=O)N1Cc1ccc(OC2CCN(S(C)(=O)=O)CC2)cc1F (single isomer, unassigned) [Example 33]
R: CON(C)C(=O)C1CCN(c2ccc(CN3[C@@H](C)CCC(c4ccccc4)S3(=O)=O)c(F)c2)CC1 (single isomer, unassigned) [Example 146]
Prompt: Please give the order of these compounds when sorted by IC50, largest value leading. Thanks in advance for listing the labels in the requested order.
Completion: R, Q, P
(R: 0.142 µM, Q: 0.013 µM, P: 0.003 µM)

###

target: RORc ligand binding domain (Homo sapiens, UniProt P51449); construct: host or cells: E. coli; assay: In Vitro RORc Ligand Binding Assay (25-[3H]hydroxycholesterol radioligand filtration); settings: In Vitro RORc Ligand Binding Assay; Table 4; read-out: RORc IC50
pIC50: −log10 of the molar value.
Measured endpoint: pIC50

Prompt: Which pIC50 value is on record for CC(=O)N1CCN(c2ccc(CN3[C@@H](C)CCC(c4ccccc4F)S3(=O)=O)c(F)c2)CC1 (single isomer, unassigned) [Example 116] ?
Completion: 7.43

I: C[C@H](O)C(=O)N1CCN(c2ccc(CN3[C@@H](C)CCC(c4ccccc4)S3(=O)=O)c(F)c2)CC1 (single isomer, unassigned) [Example 78]
II: C[C@H]1CCC(c2ccccc2)S(=O)(=O)N1Cc1ccc(N2CCn3nccc3C2)cc1F (single isomer, unassigned) [Example 134]
Prompt: I need your help: which of the pair I , II has higher pIC50? Use the label to indicate which entry you chose.
Completion: I

###

Target: RORc ligand binding domain (Homo sapiens, UniProt P51449)
Construct: host or cells: E. coli
Sequence (P51449 269-508 limits assumed): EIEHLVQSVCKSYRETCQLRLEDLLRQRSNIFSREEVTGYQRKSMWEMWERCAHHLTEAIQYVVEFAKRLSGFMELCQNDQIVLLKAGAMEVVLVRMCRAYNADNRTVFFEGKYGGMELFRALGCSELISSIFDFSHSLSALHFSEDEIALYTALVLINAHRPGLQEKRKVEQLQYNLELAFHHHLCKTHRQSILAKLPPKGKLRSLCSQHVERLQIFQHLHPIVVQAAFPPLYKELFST
Assay: In Vitro RORc Ligand Binding Assay (25-[3H]hydroxycholesterol radioligand filtration)
Conditions: In Vitro RORc Ligand Binding Assay; Table 4; read-out: RORc IC50
Measured endpoint: IC50 (nM)

A: CC(=O)N1CCN(c2ccc(CN3[C@H](C)CCCC(c4ccccc4)S3(=O)=O)c(F)c2)CC1 (single isomer, unassigned) [Example 319]
B: C[C@H]1CCC(c2ccccc2)S(=O)(=O)N1Cc1ccc(N2CCC(c3nccn3C)CC2)cc1F (single isomer, unassigned) [Example 140]
C: CC(=O)N1CCN(c2ccc(CN3CC4(CC4)CC(c4ccccc4)S3(=O)=O)c(F)c2)CC1 (single isomer, unassigned) [Example 196]
Prompt: Put the above entries in order of falling IC50. Order the labels as requested and list them.
Completion: B, C, A

###

molecular target: RORc ligand binding domain (Homo sapiens, UniProt P51449); construct: host or cells: E. coli; assay: In Vitro RORc Ligand Binding Assay (25-[3H]hydroxycholesterol radioligand filtration); settings: In Vitro RORc Ligand Binding Assay; Table 4; read-out: RORc IC50
pIC50: −log10 of the molar value.
Measured endpoint: pIC50

Prompt: What value of measured pIC50 is listed for O=C(CO)N1CCN(c2ccc(CN3CCCCC(c4ccccc4)S3(=O)=O)c(F)c2)CC1 (single isomer, unassigned) [Example 308] ?
Completion: 7.54

P: C[C@H]1CCC(c2ccccc2)S(=O)(=O)N1Cc1ccc(C(=O)NC2CN(S(C)(=O)=O)C2)cc1 (stereo partly drawn)
Q: CS(=O)(=O)N1CCC(Nc2ccc(CN3CC4(CC4)CC(c4ccccc4)S3(=O)=O)c(F)c2)CC1 (single isomer, unassigned) [Example 249]
R: CC(=O)N1CCN(c2ccc(CN3[C@@H](C)CCC(c4ccccc4)S3(=O)=O)c(F)c2)C[C@H]1CO (stereo partly drawn)
S: CC(=O)N1CCN(c2ccc(CN3CC4(COC4)CC(c4ccccc4)S3(=O)=O)c(F)c2)CC1 (single isomer, unassigned) [Example 258]
T: C[C@H]1CCC(c2ccccc2)S(=O)(=O)N1Cc1ccc(C(=O)N2CCN(C(=O)C3CC3)CC2)cc1 (stereo partly drawn)
Prompt: Sort entries by pIC50 from minimum to maximum value. Please list each label once, in the requested order.
Completion: T, S, P, R, Q
(T: 5.57, S: 5.98, P: 6.22, R: 7.21, Q: 7.43)

###

target: RORc ligand binding domain (Homo sapiens, UniProt P51449); construct: host or cells: E. coli; assay: In Vitro RORc Ligand Binding Assay (25-[3H]hydroxycholesterol radioligand filtration); conditions: In Vitro RORc Ligand Binding Assay; Table 4; read-out: RORc IC50
pIC50: −log10 of the molar value.
Measured endpoint: pIC50

Record excerpt, results attached:
Prompt: What value of pIC50 has been recorded for this entry: C[C@H]1CCC(c2ccccc2)S(=O)(=O)N1Cc1ccc(N2CCC(C#N)CC2)cc1F (single isomer, unassigned) [Example 87]
Completion: 6.70

Prompt: Suppose we examine the molecule C[C@H]1CCC(c2ccccc2)S(=O)(=O)N1Cc1ccc(N2CCC(C(=O)NC#N)CC2)cc1F (some centres unmarked) ; what pIC50 value has been reported?
Completion: 7.74

Prompt: Given C[C@H]1CCC(c2ccccc2)S(=O)(=O)N1Cc1ccc(C(=O)NCC2CCOCC2)cc1 (some centres unmarked) , state its recorded pIC50.
Completion: 6.18

Prompt: Quick check: pIC50 of C[C@H]1CCC(c2ccccc2)S(=O)(=O)N1Cc1ccc(OC2CN(S(C)(=O)=O)C2)cc1F (single isomer, unassigned) [Example 37] ?
Completion: 6.71

Prompt: Which measured pIC50 value corresponds to CC(=O)N1CCN(c2ccc(CN3[C@@H](C)COCC(c4ccccc4)S3(=O)=O)c(F)c2)CC1 (single isomer, unassigned) [Example 24] ?
Completion: 6.74

I: CC(=O)N1CCN(c2ccc(CN3[C@@H](C)CCC(c4ccc(F)cc4)S3(=O)=O)c(F)c2)CC1 (single isomer, unassigned) [Example 122]
II: C[C@H]1CCC(c2ccccc2)S(=O)(=O)N1Cc1ccc(NC2CCN(S(C)(=O)=O)CC2)cc1F (single isomer, unassigned) [Example 166]
III: CC(=O)N1CCN(c2ccc(CN3CCOCC(c4ccccc4)S3(=O)=O)c(F)c2)CC1 (centres unmarked) [Example 21]
IV: CC(=O)N1CCN(c2ccc(CN3[C@@H](C)CCC(c4ccccc4)S3(=O)=O)cc2Cl)CC1 (single isomer, unassigned) [Example 164]
V: CC(=O)N1CCN(c2ccc(CN3[C@@H](C)CCC(c4ccccc4)S3(=O)=O)c(F)c2)C[C@H]1C(=O)NC(C)C (some centres unmarked)
Prompt: # rank_down: sort by pIC50, max first # respond with the labels, arranged in the requested order
Completion: II, I, IV, III, V

a: C[C@H]1CCC(c2ccccc2)S(=O)(=O)N1Cc1ccc(N[C@H]2CC[C@H](C#N)CC2)cc1F (single isomer, unassigned) [Example 111]
b: C[C@H]1CCC(c2ccccc2)S(=O)(=O)N1Cc1ccc(N2CCC(n3cnnc3)CC2)cc1F (single isomer, unassigned) [Example 150]
c: CC(=O)N1CCN(c2ccc(CN3CC(C)(C)CC(c4ccccc4)S3(=O)=O)c(F)c2)CC1 (single isomer, unassigned) [Example 168]
Prompt: Order each entry by recorded pIC50, climbing from the minimum. List the labels in the requested order.
Completion: c, a, b

I: COC(=O)[C@@H]1CN(c2ccc(CN3[C@@H](C)CCC(c4ccccc4)S3(=O)=O)c(F)c2)CCN1C(C)=O (some centres unmarked)
II: C[C@@H](O)C(=O)N1CCN(c2ccc(CN3CCCCC(c4ccccc4)S3(=O)=O)c(F)c2)CC1 (single isomer, unassigned)
III: CC(=O)N1CCN(c2ccc(CN3[C@@H](C)CCC(c4ccccc4)S3(=O)=O)c(F)c2)C[C@H]1C(=O)N(C)C (some centres unmarked)
IV: C[C@H]1CCC(c2ccccc2)S(=O)(=O)N1Cc1ccc(C(=O)NC2CC(O)C2)cc1 (some centres unmarked)
V: CNC(=O)[C@@H]1CN(c2ccc(CN3[C@@H](C)CCC(c4ccccc4)S3(=O)=O)c(F)c2)CCN1C(C)=O (some centres unmarked)
Prompt: Descending sort on pIC50 required. I'd appreciate it if you listed the labels in the requested order.
Completion: I, V, II, III, IV
